Let's look at some binders and their measured pSTAT3 MFI, NK cells, 100 nM (unstimulated 1149).
target-desc: T1, IL10Rα/IL2Rγ receptor (human, UniProt Q13651 22-578; P31785 23-369)
T1 sequence (looked up) 1: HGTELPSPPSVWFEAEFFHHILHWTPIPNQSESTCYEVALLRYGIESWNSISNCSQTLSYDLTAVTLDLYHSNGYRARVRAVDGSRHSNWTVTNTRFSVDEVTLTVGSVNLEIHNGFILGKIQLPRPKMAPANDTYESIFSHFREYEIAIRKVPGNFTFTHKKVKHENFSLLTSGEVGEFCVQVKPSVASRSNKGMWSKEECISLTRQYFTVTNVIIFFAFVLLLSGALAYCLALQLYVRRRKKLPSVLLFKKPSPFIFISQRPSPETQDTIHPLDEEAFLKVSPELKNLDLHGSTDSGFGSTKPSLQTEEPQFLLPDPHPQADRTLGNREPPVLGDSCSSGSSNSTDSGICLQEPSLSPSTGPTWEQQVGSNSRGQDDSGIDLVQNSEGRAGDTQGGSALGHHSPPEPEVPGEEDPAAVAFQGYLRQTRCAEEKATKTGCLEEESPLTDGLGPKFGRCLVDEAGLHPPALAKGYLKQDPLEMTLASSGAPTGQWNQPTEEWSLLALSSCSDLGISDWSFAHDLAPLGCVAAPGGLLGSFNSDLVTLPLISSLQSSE
T1 sequence (looked up) 2: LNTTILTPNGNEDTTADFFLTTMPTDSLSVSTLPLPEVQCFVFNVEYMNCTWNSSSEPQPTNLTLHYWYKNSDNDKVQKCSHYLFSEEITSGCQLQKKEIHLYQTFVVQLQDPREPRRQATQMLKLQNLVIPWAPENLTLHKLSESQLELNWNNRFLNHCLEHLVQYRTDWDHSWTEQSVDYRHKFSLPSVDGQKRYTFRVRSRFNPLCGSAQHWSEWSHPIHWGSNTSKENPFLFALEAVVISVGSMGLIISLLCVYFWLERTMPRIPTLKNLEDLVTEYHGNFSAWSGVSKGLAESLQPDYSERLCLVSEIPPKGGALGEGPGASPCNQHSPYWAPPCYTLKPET
assay-method-text: cell-based or functional assay
Answer with a number only, understood to be in MFI.

Take a look at these entries with their results.
DR395(DR229-DR239) (bispecific antibody) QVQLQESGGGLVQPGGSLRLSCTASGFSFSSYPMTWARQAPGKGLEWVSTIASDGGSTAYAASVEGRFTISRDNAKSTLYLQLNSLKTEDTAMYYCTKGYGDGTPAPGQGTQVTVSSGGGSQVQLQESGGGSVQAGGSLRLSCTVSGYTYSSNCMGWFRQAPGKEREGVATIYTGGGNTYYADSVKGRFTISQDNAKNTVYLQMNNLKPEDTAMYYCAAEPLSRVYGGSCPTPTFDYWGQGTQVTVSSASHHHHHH = 1430
DR471(DR241-DR231) (bispecific antibody) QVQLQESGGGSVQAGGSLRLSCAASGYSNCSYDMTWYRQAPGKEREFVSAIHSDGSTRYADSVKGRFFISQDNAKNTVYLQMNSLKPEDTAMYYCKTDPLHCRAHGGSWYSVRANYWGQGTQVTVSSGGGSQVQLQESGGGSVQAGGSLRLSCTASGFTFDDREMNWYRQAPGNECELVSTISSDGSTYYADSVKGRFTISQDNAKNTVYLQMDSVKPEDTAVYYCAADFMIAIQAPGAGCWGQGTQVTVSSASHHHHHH = 1700

Ask: Could you tell me which pSTAT3 MFI, NK cells, 100 nM (unstimulated 1149) is on file for DR449(DR237-DR233) (bispecific antibody) QVQLQESGGGSVQAGGSLRLSCAASGYTYSMYCMGWFRQAPGKEREGVAQINSDGSTSYADSVKGRFTISKDNAKNTLYLQMNSLKPEDTAMYYCAADSRVYGGSWYERLCGPYTYEYNYWGQGTQVTVSSGGGSQVQLQESGGGSVQAGGSLRLSCTASGFTFDDSDMGWYRQAPGNECELVSTISSDGSTYYADSVKGRFTISQDNAKNTVYLQMNSLKPEDTAVYYCAAEPRGYYSNYGGRRECNYWGQGTQVTVSSASHHHHHH ?
Reply: 1250

Ask: Now try DR392(DR229-DR236) (bispecific antibody) QVQLQESGGGLVQPGGSLRLSCTASGFSFSSYPMTWARQAPGKGLEWVSTIASDGGSTAYAASVEGRFTISRDNAKSTLYLQLNSLKTEDTAMYYCTKGYGDGTPAPGQGTQVTVSSGGGSQVQLQESGGGSVQAGGSLRLSCAASRFTYSSYCMGWFRQAPGKEREGVASIDSDGSTSYTDSVKGRFTISKDNAKNTLYLQMNSLKPEDTAMYYCALDLMSTVVPGFCGFLLSAGMDYWGKGTQVTVSSASHHHHHH .
Reply: 1280

Ask: Now try DR442(DR236-DR232) (bispecific antibody) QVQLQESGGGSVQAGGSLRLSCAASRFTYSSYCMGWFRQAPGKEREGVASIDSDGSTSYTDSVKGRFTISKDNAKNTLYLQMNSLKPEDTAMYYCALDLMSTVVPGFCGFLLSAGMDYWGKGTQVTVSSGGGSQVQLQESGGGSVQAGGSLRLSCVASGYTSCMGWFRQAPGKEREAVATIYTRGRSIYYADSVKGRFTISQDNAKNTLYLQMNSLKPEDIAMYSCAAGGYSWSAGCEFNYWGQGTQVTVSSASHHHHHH .
Reply: 1220
